Listing: pKa of selected compounds
test: pKa values for the secondary alcohol OH group
Keep the answer to the number alone.

OC[C@@H](O)[C@@H](O)[C@H](O)[C@@H](O)CO :: 13.6

Q: I am curious: what pKa value has been reported for OC[C@H]1O[C@H](O[C@H]2[C@H](O)[C@@H](O)C(O)O[C@@H]2CO)[C@H](O)[C@@H](O)[C@@H]1O (mixture of isomers) ?
A: 11.9

Data origin: patent US20150136603A1
